// data source = patent US20090202526A1

Target: T1, Rat trkC-Fc fusion protein (rat, UniProt Q03351 32-429)
T1 construct: Immobilised on CM5 chip for BIAcore; not shown: Fc part not described
Experiment: BIAcore SPR, Fab over immobilised rat trkC-Fc
Method: Affinities of anti-trkC Fabs and monoclonal antibodies were determined using the BIAcore 3000™ surface plasmon resonance (SPR) system (BIAcore, INC, Piscaway N.J.). […] The concentrations of the Fab proteins are determined by ELISA and/or SDS-PAGE electrophoresis using a Fab of known concentration (as determined by amino acid analysis) as a standard. […] Equilibrium dissociation constant (KD) values are calculated as koff/kₒₙ.
Endpoint name: koff (s⁻¹)
Respond numerically; units are s⁻¹ and should not be typed.

Examples from the recorded data:
Fab clone 129(T8)(H8xE10) (Fab, V domains shown) VH: QVQLVQSGAEVKKPGASVKVSCKASGYTFTSYRIHWVRQAPGQGLEWMGEIYPSNSRTNYNEKFKSRATMTGDKSTSTVYMELSSLRSEDTAVYYCARKYYYGNSRRSWYFDVWGQGTTVTVS VL: DIQMTQSPSSLSASVGDRVTITCRASESIDNYGISFLAWYQQKPGKAPKLLIYAASNRGSGVPSRFSGSGSGTDFTFTISSLQPEDIATYYCQQSKTVPRTFGQGTKLEIKR	0.09
Fab clone 129(T8)(H8xE10)(10B) (Fab, V domains shown) VH: QVQLVQSGAEVKKPGASVKVSCKASGYTFTSYRIHWVRQAPGQGLEWMGEIYPSNSRTNYNEKFKSRVTMTRDTSTSTVYMELSSLRSEDTAVYYCARKYYYGNSRRSWYFDVWGQGTTVTVS VL: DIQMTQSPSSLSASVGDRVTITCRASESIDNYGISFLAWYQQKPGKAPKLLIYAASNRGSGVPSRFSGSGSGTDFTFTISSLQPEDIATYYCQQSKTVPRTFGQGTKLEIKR	0.01
Fab A5, clone 129(T8)(H8xE10)(10B)(A5) (Fab, V domains shown, purified on Ni-NTA; also called A5 (Fab)) VH: QVQLVQSGAEVKKPGASVKVSCKASGYTFTSYRIHWVRQAPGQGLEWMGEIYPSNARTNYNEKFKSRVTMTRDTSTSTVYMELSSLRSEDTAVYYCARKYYYGNTRRSWYFDVWGQGTTVTVS VL: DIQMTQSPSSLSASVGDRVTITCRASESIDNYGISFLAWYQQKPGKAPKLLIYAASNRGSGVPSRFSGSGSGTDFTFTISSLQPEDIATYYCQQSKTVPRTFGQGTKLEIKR	0.0267
Fab clone 129(T8)(H8xE10)(10B)(C7) (Fab, V domains shown) VH: QVQLVQSGAEVKKPGASVKVSCKASGYTFTSYRIHWVRQAPGQGLEWMGEIYPSNTRTNYNEKFKSRVTMTRDTSTSTVYMELSSLRSEDTAVYYCARKYYYGNTRRSWYFDVWGQGTTVTVS VL: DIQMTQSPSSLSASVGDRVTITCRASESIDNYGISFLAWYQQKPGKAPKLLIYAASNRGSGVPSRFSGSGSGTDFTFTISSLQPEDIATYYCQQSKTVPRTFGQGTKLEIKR	0.03

Continue with the binder presented below.
Please give the documented koff of Fab clone 129(T8)(H8xE10)(10B)(E2) (Fab, V domains shown) VH: QVQLVQSGAEVKKPGASVKVSCKASGYTFTSYRIHWVRQAPGQGLEWMGEIYPSNGRTNYNEKFKSRVTMTRDTSTSTVYMELSSLRSEDTAVYYCARKYYYGNTRRSWYFDVWGQGTTVTVS VL: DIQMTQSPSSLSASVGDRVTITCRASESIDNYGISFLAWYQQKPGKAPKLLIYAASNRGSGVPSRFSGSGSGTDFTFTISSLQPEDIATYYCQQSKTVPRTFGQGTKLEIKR
0.0094
